Experiment: drug concentration in brain tissue, plasma and CSF after oral administration in mice
Assay type: in vivo
Condition Info: ICR (CD-1), mouse, po, 20 mg/kg, PO 20 mg/kg, 30 min, mean; read-out: CSF
Property Label: concentration at 30 min (ng/mL)
Write down the numeric answer in ng/mL and omit the unit.

*Q* So what does the record say about concentration at 30 min for `O=C(/C=C/c1ccccc1C(F)(F)F)N1C(=O)OC[C@@H]1c1ccccc1` ?
*A* 3.2

---

Experiment: drug concentration in brain tissue, plasma and CSF after oral administration in mice
Assay type: in vivo
Condition Info: ICR (CD-1), mouse, brain/heart plasma, po, 20 mg/kg, PO 20 mg/kg, 15 min, individual animals 13-15; read-out: Brain/H. Plasma
Property Label: Kp at 15 min
Output spec: single numeric token, no unit.

*Q* Need Kp at 15 min of `O=C(/C=C/c1ccccc1C(F)(F)F)N1C(=O)OC[C@@H]1c1ccccc1` , thanks.
*A* 0.7
